B1: library; a variant is named by its letters at N, in order (parent)
chain: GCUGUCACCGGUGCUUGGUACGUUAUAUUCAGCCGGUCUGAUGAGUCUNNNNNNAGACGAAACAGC

# Variants of: B1
# protocolText: FACS-Seq fitted mean relative fluorescence mCherry/BFP without ligand (log10 relative fluorescence); HEK293T overexpressing SLC46A1; higher = higher reporter protein expression
# conditions: without (6R,S)-folinic acid; ligand present: no
Use 0.4 as the dividing line for FACS-Seq fitted mean (log10), with the line itself on the satisfied side and lower values as not satisfied.

*Q* Is FACS-Seq fitted mean (log10) at least 0.4? Consider GUAACC
*A* satisfied

*Q* Is FACS-Seq fitted mean (log10) at least 0.4? Consider GAAGCA
*A* not satisfied

*Q* Is FACS-Seq fitted mean (log10) at least 0.4? Consider ACGUAA
*A* satisfied

*Q* Is FACS-Seq fitted mean (log10) at least 0.4? Consider UCAAGC
*A* satisfied

*Q* Is FACS-Seq fitted mean (log10) at least 0.4? Consider GGGAGU
*A* satisfied

*Q* Is FACS-Seq fitted mean (log10) at least 0.4? Consider GUAGCU
*A* satisfied

*Q* Is FACS-Seq fitted mean (log10) at least 0.4? Consider GAGUGG
*A* satisfied

*Q* Is FACS-Seq fitted mean (log10) at least 0.4? Consider GGCUUG
*A* satisfied

*Q* Is FACS-Seq fitted mean (log10) at least 0.4? Consider ACGUUU
*A* not satisfied

*Q* Is FACS-Seq fitted mean (log10) at least 0.4? Consider AAAAGC
*A* satisfied

*Q* Is FACS-Seq fitted mean (log10) at least 0.4? Consider CGCAUU
*A* not satisfied

*Q* Is FACS-Seq fitted mean (log10) at least 0.4? Consider AUAGGU
*A* satisfied

*Q* Is FACS-Seq fitted mean (log10) at least 0.4? Consider ACAAUA
*A* satisfied

*Q* Is FACS-Seq fitted mean (log10) at least 0.4? Consider GACGAA
*A* satisfied

*Q* Is FACS-Seq fitted mean (log10) at least 0.4? Consider UGCUAG
*A* not satisfied

*Q* Is FACS-Seq fitted mean (log10) at least 0.4? Consider AUGAGA
*A* satisfied

*Q* Is FACS-Seq fitted mean (log10) at least 0.4? Consider GUUGCU
*A* not satisfied

*Q* Is FACS-Seq fitted mean (log10) at least 0.4? Consider AAGGCC
*A* not satisfied

*Q* Is FACS-Seq fitted mean (log10) at least 0.4? Consider GACCAA
*A* not satisfied

*Q* Is FACS-Seq fitted mean (log10) at least 0.4? Consider GAAGCG
*A* not satisfied

*Q* Is FACS-Seq fitted mean (log10) at least 0.4? Consider GAUGUA
*A* not satisfied

*Q* Is FACS-Seq fitted mean (log10) at least 0.4? Consider UAGAGC
*A* not satisfied

*Q* Is FACS-Seq fitted mean (log10) at least 0.4? Consider AAUCAG
*A* not satisfied

*Q* Is FACS-Seq fitted mean (log10) at least 0.4? Consider GGUCCA
*A* satisfied

*Q* Is FACS-Seq fitted mean (log10) at least 0.4? Consider AUGACA
*A* not satisfied

*Q* Is FACS-Seq fitted mean (log10) at least 0.4? Consider UCUCGU
*A* not satisfied

*Q* Is FACS-Seq fitted mean (log10) at least 0.4? Consider CUCUUA
*A* not satisfied

*Q* Is FACS-Seq fitted mean (log10) at least 0.4? Consider AGCCUA
*A* satisfied

*Q* Is FACS-Seq fitted mean (log10) at least 0.4? Consider GAAAAG
*A* not satisfied

*Q* Is FACS-Seq fitted mean (log10) at least 0.4? Consider GCUAUA
*A* not satisfied

*Q* Is FACS-Seq fitted mean (log10) at least 0.4? Consider GGGUGC
*A* satisfied

*Q* Is FACS-Seq fitted mean (log10) at least 0.4? Consider UGGCCA
*A* satisfied

*Q* Is FACS-Seq fitted mean (log10) at least 0.4? Consider GAGUAA
*A* satisfied

*Q* Is FACS-Seq fitted mean (log10) at least 0.4? Consider GAUGAU
*A* not satisfied

*Q* Is FACS-Seq fitted mean (log10) at least 0.4? Consider AAUUGU
*A* not satisfied

*Q* Is FACS-Seq fitted mean (log10) at least 0.4? Consider GAUAGC
*A* not satisfied

*Q* Is FACS-Seq fitted mean (log10) at least 0.4? Consider CUGAGA
*A* not satisfied

*Q* Is FACS-Seq fitted mean (log10) at least 0.4? Consider GUCGCC
*A* not satisfied

*Q* Is FACS-Seq fitted mean (log10) at least 0.4? Consider UAACUU
*A* satisfied

*Q* Is FACS-Seq fitted mean (log10) at least 0.4? Consider CUAUUG
*A* not satisfied

*Q* Is FACS-Seq fitted mean (log10) at least 0.4? Consider GGAUUC
*A* satisfied

*Q* Is FACS-Seq fitted mean (log10) at least 0.4? Consider AAAUUG
*A* not satisfied

*Q* Is FACS-Seq fitted mean (log10) at least 0.4? Consider GAGAAG
*A* not satisfied

*Q* Is FACS-Seq fitted mean (log10) at least 0.4? Consider UGCUGG
*A* not satisfied

*Q* Is FACS-Seq fitted mean (log10) at least 0.4? Consider AACGUA
*A* not satisfied

*Q* Is FACS-Seq fitted mean (log10) at least 0.4? Consider UACCGU
*A* not satisfied

*Q* Is FACS-Seq fitted mean (log10) at least 0.4? Consider UUUCUG
*A* not satisfied

*Q* Is FACS-Seq fitted mean (log10) at least 0.4? Consider UAAUUG
*A* not satisfied

*Q* Is FACS-Seq fitted mean (log10) at least 0.4? Consider CUCCGG
*A* not satisfied

*Q* Is FACS-Seq fitted mean (log10) at least 0.4? Consider GCAUAU
*A* not satisfied

*Q* Is FACS-Seq fitted mean (log10) at least 0.4? Consider UAAGAG
*A* not satisfied

*Q* Is FACS-Seq fitted mean (log10) at least 0.4? Consider CUAAGU
*A* satisfied

*Q* Is FACS-Seq fitted mean (log10) at least 0.4? Consider ACUUUA
*A* not satisfied

*Q* Is FACS-Seq fitted mean (log10) at least 0.4? Consider UAUGGG
*A* not satisfied

*Q* Is FACS-Seq fitted mean (log10) at least 0.4? Consider AUAAAG
*A* satisfied

*Q* Is FACS-Seq fitted mean (log10) at least 0.4? Consider GAUAUG
*A* not satisfied

*Q* Is FACS-Seq fitted mean (log10) at least 0.4? Consider AAAUAA
*A* not satisfied

*Q* Is FACS-Seq fitted mean (log10) at least 0.4? Consider GUUCUA
*A* not satisfied

*Q* Is FACS-Seq fitted mean (log10) at least 0.4? Consider ACAGCG
*A* not satisfied

*Q* Is FACS-Seq fitted mean (log10) at least 0.4? Consider GGUUGC
*A* satisfied

*Q* Is FACS-Seq fitted mean (log10) at least 0.4? Consider AACGUU
*A* satisfied

*Q* Is FACS-Seq fitted mean (log10) at least 0.4? Consider UGGACG
*A* not satisfied

*Q* Is FACS-Seq fitted mean (log10) at least 0.4? Consider ACAUCC
*A* not satisfied

*Q* Is FACS-Seq fitted mean (log10) at least 0.4? Consider GGAGCC
*A* not satisfied

*Q* Is FACS-Seq fitted mean (log10) at least 0.4? Consider AAUCCU
*A* satisfied

*Q* Is FACS-Seq fitted mean (log10) at least 0.4? Consider CACGAU
*A* not satisfied

*Q* Is FACS-Seq fitted mean (log10) at least 0.4? Consider GAUAGU
*A* satisfied

*Q* Is FACS-Seq fitted mean (log10) at least 0.4? Consider CGCUGC
*A* not satisfied

*Q* Is FACS-Seq fitted mean (log10) at least 0.4? Consider AAAAGG
*A* satisfied

*Q* Is FACS-Seq fitted mean (log10) at least 0.4? Consider CGGGAC
*A* not satisfied

*Q* Is FACS-Seq fitted mean (log10) at least 0.4? Consider UAUUAA
*A* not satisfied

*Q* Is FACS-Seq fitted mean (log10) at least 0.4? Consider UGACCA
*A* not satisfied

*Q* Is FACS-Seq fitted mean (log10) at least 0.4? Consider UGCUUG
*A* satisfied

*Q* Is FACS-Seq fitted mean (log10) at least 0.4? Consider ACAUAC
*A* not satisfied

*Q* Is FACS-Seq fitted mean (log10) at least 0.4? Consider UCGUCG
*A* not satisfied

*Q* Is FACS-Seq fitted mean (log10) at least 0.4? Consider AAUAUU
*A* satisfied

*Q* Is FACS-Seq fitted mean (log10) at least 0.4? Consider GUCACC
*A* not satisfied

*Q* Is FACS-Seq fitted mean (log10) at least 0.4? Consider UGCAAU
*A* not satisfied

*Q* Is FACS-Seq fitted mean (log10) at least 0.4? Consider UGGCAG
*A* not satisfied

*Q* Is FACS-Seq fitted mean (log10) at least 0.4? Consider GCCGAA
*A* not satisfied

*Q* Is FACS-Seq fitted mean (log10) at least 0.4? Consider AAGUCG
*A* not satisfied

*Q* Is FACS-Seq fitted mean (log10) at least 0.4? Consider UUUGAA
*A* not satisfied

*Q* Is FACS-Seq fitted mean (log10) at least 0.4? Consider AACGUG
*A* satisfied

*Q* Is FACS-Seq fitted mean (log10) at least 0.4? Consider AUACAU
*A* satisfied
